These measurements were taken from the SangsterLogP compilation.

Hi there, I'd appreciate the recorded logP for every entry that follows.
Numbers only.

Recorded results for 4 molecules are shown here.
>>> print(df.to_string())
                                   molecule  experimental_readout  numeric_result
0  CC(=O)N(C)C(C)C(=O)NCc1ccco1 (stereo not given)                  logP           -0.55
1  CC(=O)NC(Cc1ccc(Cl)cc1)C(=O)NCc1ccccc1 (stereo not given)                  logP            3.72
2               CC(=O)N(C)CCC(=O)NCc1ccccc1                  logP            1.12
3  CC(=O)N[C@@H](Cc1c[nH]c2ccccc12)C(=O)NCc1ccccc1                  logP            2.17

Give me logP for each of these molecules, listed below.
1. CC(=O)NC(C)C(=O)NCC(C)C (stereo not given)
2. CN[C@H](C)C(=O)NCc1ccc(OC)cc1
3. CC(=O)NC(CCCNC(=N)N[N+](=O)[O-])C(=O)NCc1ccccc1 (stereo not given)
4. CN1CSCC1C(=O)NCc1ccccc1 (stereo not given)
5. CCCCNC(=O)C(C)NC(C)=O (stereo not given)

1: 0.56; 2: 1.11; 3: 0.45; 4: 1.85; 5: 0.55

---

Respond with Condition met for logP values of 1 and above, Condition not met for values below.

These recorded examples may help you get a feel for the data.
>>> df
                                   molecule     category_label
0  CCNC(C)C(=O)NCc1ccccc1 (centres undefined)      Condition met
1  CC(=O)N1CSCC1C(=O)NCc1ccccc1 (centres undefined)      Condition met
2  CNC(C)C(=O)NCc1cccnc1 (centres undefined)  Condition not met
3  CC(=O)N(C)C(C)C(=O)NCc1ccccc1 (centres undefined)      Condition met
4  CC(NC(=O)OCc1ccccc1)C(=O)OCc1ccccc1 (centres undefined)      Condition met

Evaluate CC(=O)N1CCC[C@@H]1C(=O)NCc1ccccc1 : logP at minimum 1?
Condition met

Evaluate CNC(C)C(=O)NCc1ccco1 (centres undefined) : logP at minimum 1?
Condition not met

Evaluate CC(=O)NC(C)C(=O)NCCC(C)C (centres undefined) : logP at minimum 1?
Condition not met

Evaluate O=C(NC(O)C(=O)O)OCc1ccccc1 (centres undefined) : logP at minimum 1?
Condition met

Evaluate CC(=O)NC(C)(C)C(=O)NCc1ccccc1 : logP at minimum 1?
Condition met

Evaluate CC(=O)NCCC(=O)NCc1ccccc1 : logP at minimum 1?
Condition not met

Evaluate O=C(NC(CCC1CCCCC1)C(=O)OCCC1CCCCC1)OCc1ccccc1 (centres undefined) : logP at minimum 1?
Condition met

---

Respond with y for logP values of 2 and above, n for values below.

In [3]: df
Out[3]:
                                   compound  category_label
0                CC(=O)N(C)CC(=O)NCc1ccccc1               n
1  CC(C(=O)NCc1ccccc1)N(C)C(=O)OC(C)(C)C (stereo unspecified)               y
2  CC(C(=O)NCc1ccccc1)N(C)C (stereo unspecified)               n
3  CC(NC(=O)OCc1ccccc1)C(=O)NCc1ccccc1 (stereo unspecified)               y

Evaluate CN[C@H](C)C(=O)NCc1ccc(F)cc1 : logP at minimum 2?
n

Evaluate CC(=O)NC(CC(C)C)C(=O)NCc1ccccc1 (stereo unspecified) : logP at minimum 2?
y
